B1: EHEE_rd2_0601 (parent)
chain: TYTYKLTDEEASRRAEDEWRNRGYDVRVRNNNGTWEVEVR

- Variants of: B1
- assayName: folding stability dG (cDNA display proteolysis); higher = more stable
- conditionNotes: PBS, room temperature
quantity: folding stability dG (kcal/mol)
Answer format: numeric, kcal/mol implied, no suffix.

Item under review: `D8A` . Reported folding stability dG?
0.271

# repeat for `T7I`
1.62

# repeat for `V39H`
-0.712

# repeat for `T34V`
2.01

# repeat for `D8T`
1.74

# repeat for `E9H`
0.807

# repeat for `E10I`
1.3

# repeat for `N31K`
1.16

# repeat for `E38F`
1.03

# repeat for `D25T`
1.46
